Test system: ATP;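 also: ATP exposure 15 min at 22 °C before imaging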
Assay Info: switch fluorescence ratio, 500 uM ATP over buffer (Cy3 cluster intensity, sum of 5 cycles each) (fold (ratio)); higher = stronger signal-on switching upon ATP binding; sequences stand for … in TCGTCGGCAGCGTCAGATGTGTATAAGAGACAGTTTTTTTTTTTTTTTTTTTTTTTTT…TC
Experimental Setup: aptamer strand: ATP DNA aptamer (quencher-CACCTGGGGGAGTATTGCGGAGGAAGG + anchor), 100 nM annealed; ATP concentration: 500 uM
Parameter threshold = 1. Response is label 1 when switch fluorescence ratio meets or exceeds it, else label 0.

Could you please find out whether `CAATAAGGGG` has switch fluorescence ratio that meets 1 or exceeds it?
label 1

Could you please find out whether `CCCGGGTTAG` has switch fluorescence ratio that meets 1 or exceeds it?
label 1

Could you please find out whether `TACGATGAGG` has switch fluorescence ratio that meets 1 or exceeds it?
label 1

Could you please find out whether `TGAATGTGGT` has switch fluorescence ratio that meets 1 or exceeds it?
label 0

###

Tested on: ATP;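 also: ATP exposure 15 min at 22 °C before imaging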
Assay Info: switch fluorescence ratio, 500 uM ATP over buffer (Cy3 cluster intensity, sum of 5 cycles each) (fold (ratio)); higher = stronger signal-on switching upon ATP binding; sequences stand for … in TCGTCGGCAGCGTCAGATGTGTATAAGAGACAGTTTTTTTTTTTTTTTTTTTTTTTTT…TC
Experimental Setup: aptamer strand: ATP DNA aptamer (quencher-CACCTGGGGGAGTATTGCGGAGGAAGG + anchor), 100 nM annealed; ATP concentration: 500 uM
Attribute Measured: switch fluorescence ratio
Number only, please.

# annotated cases, reported switch fluorescence ratio shown
AAATGGGGAC | 0.978
CGAGGGGGCT | 0.99

The reported value for `CATAGGGTTC` in terms of switch fluorescence ratio is 0.995

The reported value for `ACACACGGTC` in terms of switch fluorescence ratio is 1.34

The reported value for `TCCTTCTCTT` in terms of switch fluorescence ratio is 1.05

The reported value for `ATTATTAAGT` in terms of switch fluorescence ratio is 0.987

###

System: ATP;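 also: ATP exposure 15 min at 22 °C before imaging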
Assay Info: switch fluorescence ratio, 500 uM ATP over buffer (Cy3 cluster intensity, sum of 5 cycles each) (fold (ratio)); higher = stronger signal-on switching upon ATP binding; sequences stand for … in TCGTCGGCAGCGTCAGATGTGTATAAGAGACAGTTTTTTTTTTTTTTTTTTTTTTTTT…TC
Experimental Setup: aptamer strand: ATP DNA aptamer (quencher-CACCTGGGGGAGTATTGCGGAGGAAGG + anchor), 100 nM annealed; ATP concentration: 500 uM
Catalogue of switch fluorescence ratio values
Number only, please.

# annotated cases, reported switch fluorescence ratio shown
GTTGTTATAG | 1.02
GGGTTAGCTG | 1.01
TTGAGGGGGA | 1.01
ACGAGGGTGG | 1.06
ATTTTGAGGC | 1.02
GAAGGGCATA | 1.02

Kindly review the next sequence as well.
The reported value for `GTCAGAACG` in terms of switch fluorescence ratio is 1.03

###

Test system: ATP;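 also: ATP exposure 15 min at 22 °C before imaging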
Assay Info: switch fluorescence ratio, 500 uM ATP over buffer (Cy3 cluster intensity, sum of 5 cycles each) (fold (ratio)); higher = stronger signal-on switching upon ATP binding; sequences stand for … in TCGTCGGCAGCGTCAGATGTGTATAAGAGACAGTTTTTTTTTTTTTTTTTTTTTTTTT…TC
Experimental Setup: aptamer strand: ATP DNA aptamer (quencher-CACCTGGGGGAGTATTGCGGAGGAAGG + anchor), 100 nM annealed; ATP concentration: 500 uM
Attribute Measured: switch fluorescence ratio
Number only, please.

# annotated cases, reported switch fluorescence ratio shown
GTTGAGTAGC | 1.02
AGAGAGGTTT | 0.986
ATAATAGATA | 1.01
AACGTTTAAA | 1.04
GTGGCTGGGT | 0.981
TTGGGATGAG | 1
TATGAGGCTT | 0.999
GTTTTCAACA | 0.989
TTAGGGGTAT | 0.996
GCCCAGTCAT | 0.997

The reported value for `GTCCTTTCTG` in terms of switch fluorescence ratio is 0.988

The reported value for `GGGGTTCTCG` in terms of switch fluorescence ratio is 1

The reported value for `TTTCTATTTT` in terms of switch fluorescence ratio is 1.02

The reported value for `ATAAAATAAA` in terms of switch fluorescence ratio is 0.976

The reported value for `GTTACCGGAC` in terms of switch fluorescence ratio is 1.5

Values were extracted from the supplement of paper PMC10126150.
